assaySystem: PD-L1 antigen (ELISA of Example 2) (human, UniProt Q9NZQ7 19-239, limits assumed)
Sequence (Q9NZQ7 19-239 limits assumed): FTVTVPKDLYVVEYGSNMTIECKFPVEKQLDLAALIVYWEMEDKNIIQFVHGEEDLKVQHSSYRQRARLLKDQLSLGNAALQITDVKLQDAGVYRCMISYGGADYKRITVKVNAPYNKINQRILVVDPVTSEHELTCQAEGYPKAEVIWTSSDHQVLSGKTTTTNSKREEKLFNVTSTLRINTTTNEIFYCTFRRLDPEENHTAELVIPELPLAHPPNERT
testProtocol: ELISA, signal on PD-L1 antigen over control
experimentalReadout: A/control
Answers are plain numbers.

2LIG109 (VHH, PD-L1 VHH) VHH: QVQLQESGGGLVQSGGSLRLSCKTSGFTFSSYGMSWVRQTPGKGPEWVSAIDSGGGSTSYADSVKGRFTISRDNAKNTLYLQMNSLKPEDTAVYYCAQGYYCSGYGCSDYWGQGTQVTVSS | 32.6

# input // query A/control value for entry 2LIG85 (VHH, PD-L1 VHH) VHH: QVQLQESGGGLVQPGGSLRLSCAASGFTFTAYAMSWFRQAPGKEREEVSCINSSDGSTYYADSVKGRFTISRDNAKNTVYLQMNSLKPEDTAVYHCATDGWRDCTWSNEYAYWGQGTQVTVSS
# output 22.6
